Biological target: ScBem1-D1
Experiment: SPOT peptide array binding signal intensity (averaged, normalized) (arbitrary units (background-subtracted, floor 0; scale differs between SH3 domains)); higher = stronger binding of the SH3 domain to the peptide
Below: a set of entries, each annotated with reported SPOT peptide array binding signal intensity.
Answer using only a numeral; do not append any unit.

> print(dat)
            binder  data.value
1  NRLRKRLNLPSEISI          61

Problem: Give SPOT peptide array binding signal intensity for `YRRKSIPFAPHQITA`
Solution: 29.5
